Target: ASGPR receptor (Mus musculus, UniProt P24721+P34927)
Construct: C57 mouse primary liver cells were isolated; endogenous in cells
Sequence (P34927 whole entry): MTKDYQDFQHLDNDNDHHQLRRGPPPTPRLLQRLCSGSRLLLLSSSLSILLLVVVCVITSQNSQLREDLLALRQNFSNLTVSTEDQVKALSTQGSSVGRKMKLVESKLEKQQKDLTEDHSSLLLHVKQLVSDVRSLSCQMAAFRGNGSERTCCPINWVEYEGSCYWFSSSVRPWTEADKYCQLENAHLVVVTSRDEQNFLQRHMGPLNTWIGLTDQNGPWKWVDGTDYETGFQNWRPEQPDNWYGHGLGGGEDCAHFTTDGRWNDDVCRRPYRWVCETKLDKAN
Sequence (P24721 whole entry): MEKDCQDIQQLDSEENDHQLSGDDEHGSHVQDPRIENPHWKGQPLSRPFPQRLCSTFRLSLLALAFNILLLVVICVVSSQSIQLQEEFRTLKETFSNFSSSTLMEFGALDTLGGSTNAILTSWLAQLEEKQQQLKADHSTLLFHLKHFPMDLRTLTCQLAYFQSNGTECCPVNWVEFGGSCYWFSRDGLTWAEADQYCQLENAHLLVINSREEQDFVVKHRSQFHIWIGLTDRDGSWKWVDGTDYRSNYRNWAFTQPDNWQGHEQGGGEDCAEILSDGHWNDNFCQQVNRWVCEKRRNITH
Assay: Binding of Cy5-labelled ligands to ASGPR on primary mouse liver cells (Kd)
Details: C57 mouse primary liver cells, incubated 37° C. in the dark for 30 min, trypsin to remove surface fluorescence
Procedure: The binding rate of the ligand of the present disclosure to the ASGPR receptor of liver cancer cells was tested, with the ligand with hepatocellular ASGPR-targeting property, loaded in Inclisiran, a small interfering nucleic acid drug marketed by Alnylam, as a positive control (PC). […] The cells were added with typsin to remove fluorescence on the cell surface. The cells were washed again with 500 μL of PBS and detected on machine.
recorded_metric: Kd (nM)
Write the number in nM without appending the unit.

{"columns": ["compound", "subject_of_test", "unit_string", "Kd"],
 "data": [
  ["CC[N+]1=C(/C=C/C=C/C=C2/c3ccccc3N(CCCCCC(=O)NCCCC(=O)CCCCCCCCCCC(=O)N3C[C@H](OCC(=O)NCCOCCOCCOC4OC(CO)C(O)C(O)C4NC(C)=O)C[C@H]3C(=O)NC(COCCC(=O)NCCOCCOCCOC3OC(CO)C(O)C(O)C3NC(C)=O)COCCC(=O)NCCOCCOCCOC3OC(CO)C(O)C(O)C3NC(C)=O)C2(C)C)C(C)(C)c2ccccc21 (stereo partly drawn) [TC12A-Cy5]", "ASGPR receptor (Mus musculus, UniProt P24721+P34927)", "nM", 0.696]
]}

Using the record for CC[N+]1=C(/C=C/C=C/C=C2/c3ccccc3N(CCCCCC(=O)NCCNC(=O)CCC(=O)Nc3cc(C(=O)NCCOCCOC4OC(CO)C(O)C(O)C4NC(C)=O)cc(C(=O)Nc4cc(C(=O)NCCOCCOC5OC(CO)C(O)C(O)C5NC(C)=O)cc(C(=O)NCCOCCOC5OC(CO)C(O)C(O)C5NC(C)=O)c4)c3)C2(C)C)C(C)(C)c2ccccc21 (stereo not drawn) [TC17A-Cy5] , report its Kd.
1.26

Next up: CC[N+]1=C(/C=C/C=C/C=C2/c3ccccc3N(CCCCCC(=O)NCCNC(=O)CCNC(=O)[C@H](CNC(=O)C(C)(COCC(=O)NCCOCCOC3OC(CO)C(O)C(O)C3NC(C)=O)COCC(=O)NCCOCCOC3OC(CO)C(O)C(O)C3NC(C)=O)NC(=O)C(C)(COCC(=O)NCCOCCOC3OC(CO)C(O)C(O)C3NC(C)=O)COCC(=O)NCCOCCOC3OC(CO)C(O)C(O)C3NC(C)=O)C2(C)C)C(C)(C)c2ccccc21 (stereo partly drawn) [TEC02A-Cy5]
0.198

Next up: CC[N+]1=C(/C=C/C=C/C=C2/c3ccccc3N(CCCCCC(=O)NCCNC(=O)CCCCCCCCCCCNC(=O)[C@H](CNC(=O)C(C)(COCC(=O)NCCOCCOC3OC(CO)C(O)C(O)C3NC(C)=O)COCC(=O)NCCOCCOC3OC(CO)C(O)C(O)C3NC(C)=O)NC(=O)C(C)(CCCC(=O)NCCOCCOC3OC(CO)C(O)C(O)C3NC(C)=O)COCC(=O)NCCOCCOC3OC(CO)C(O)C(O)C3NC(C)=O)C2(C)C)C(C)(C)c2ccccc21 (stereo partly drawn) [TEC06A-Cy5]
0.496

Next up: CC[N+]1=C(/C=C/C=C/C=C2/c3ccccc3N(CCCCCC(=O)NCCNC(=O)CCCCCCCCCCCNC(COCCC(=O)NCCCNC(=O)CCCCOC3OC(CO)C(O)C(O)C3NC(C)=O)(COCCC(=O)NCCCNC(=O)CCCCOC3OC(CO)C(O)C(O)C3NC(C)=O)COCCC(=O)NCCCNC(=O)CCCCOC3OC(CO)C(O)C(O)C3NC(C)=O)C2(C)C)C(C)(C)c2ccccc21 (stereo not drawn) [PC-Cy5, reference compound]
0.408

Next up: CC[N+]1=C(/C=C/C=C/C=C2/c3ccccc3N(CCCCCC(=O)NCCNC(=O)CCCCCCCCCCC(=O)N3C[C@H](OCC(=O)NCCOCCOC4OC(CO)C(O)C(O)C4NC(C)=O)C[C@H]3C(=O)NC(C)(COCCC(=O)NCCOCCOC3OC(CO)C(O)C(O)C3NC(C)=O)COCCC(=O)NCCOCCOC3OC(CO)C(O)C(O)C3NC(C)=O)C2(C)C)C(C)(C)c2ccccc21 (stereo partly drawn) [TC10A-Cy5]
0.867
